Kindly supply the reported TGI values for the records listed here.
system: HCC-2998 colon; assay: NCI tumour cell line growth inhibition, 48 h
Give bare numbers, in µM.

Below, each entry is followed by its recorded TGI result.
• Cc1ccc(C2(O)CC(c3ccc([N+](=O)[O-])o3)=NN2C(=O)COc2ccccc2Cl)cc1 (configuration not stated) = 38.3
• COc1cc(Cn2ccc3c2-c2oncc2CC3)cc(OC)c1 = 90.1
• Nc1nc(N)c(N=O)c(Nc2ccc(I)cc2)n1 = 88.2
• O=C(Nc1ccccc1)NS(=O)(=O)c1ccc(N2N=C3c4ccccc4CC3C2c2ccccn2)cc1 (configuration not stated) = 33.3
• O=C1/C(=C/c2ccccc2)N=C(c2ccccc2)N1C1Nc2cc3c(cc2S1)NC(N1C(=O)/C(=C/c2ccccc2)N=C1c1ccccc1)S3 (configuration not stated) = 4.76

Report TGI for each item below.
1. CCOC(=O)C(=Cc1cc(OC)ccc1OC)C(=O)OCC
2. C[C@]12CCC3c4ccc(O)cc4CCC3C1Cc1ccc(O)cc12 (some centres not stated)
3. CN1CCN(Cc2ccc(NC(=O)c3nc4ccc5[nH]ncc5c4c4c3CCC4)cc2C(F)(F)F)CC1
4. CCOC(=O)Cn1c(C)c(/C=N/NC(=O)c2cc3c(ccc4ccccc43)o2)c2ccccc21
5. CCCCCCCCCC1C(C)c2c([nH]c3ccccc23)C2C(=O)N(c3ccccc3)C(=O)C21 (configuration not stated)
6. COc1cc2nc(N3CCCC3)nc(Nc3ccccc3)c2cc1OC
7. O=C1C[C@@H](Sc2ccccc2)C2(OCCO2)[C@H]2ON3CCC[C@@H]3[C@@H]12
8. CC1(C)N=C(N)N=C(N)N1c1cccc(CCCCc2ccccc2)c1

1. 34.8
2. 18.4
3. 1.65
4. 2.84
5. 25.7
6. 3.65
7. 20.8
8. 3.82

Working through the 3 molecules below one at a time, give TGI for each.
1. c1ccc(N=c2sc3ccccc3sc2=Nc2ccccc2)cc1
2. O=C(OCC1OC(OC(=O)c2cc(O)c(O)c(OC(=O)c3cc(O)c(O)c(O)c3)c2)C(OC(=O)c2cc(O)c(O)c(OC(=O)c3cc(O)c(O)c(O)c3)c2)C(OC(=O)c2cc(O)c(O)c(OC(=O)c3cc(O)c(O)c(O)c3)c2)C1OC(=O)c1cc(O)c(O)c(OC(=O)c2cc(O)c(O)c(O)c2)c1)c1cc(O)c(O)c(OC(=O)c2cc(O)c(O)c(O)c2)c1 (configuration not stated)
3. COc1ccc(OC)c(C#Cc2ccc(OC)c(C(=O)NCCc3ccc(F)cc3)c2)c1

1. 3.24
2. 46
3. 7.73

====

tested on: MOLT-4 leukemia; test: NCI tumour cell line growth inhibition, 48 h; in the data active = GI50 below about 0.43 µM; inactive = the rest
Mark one answer only. Choices: t for active, f for inactive

Give the logged outcome of this assay for the following molecule: Nc1ccn(C2CC(O)C(CO)O2)c(=O)n1 (stereo not drawn) f

Returns: the outcome recorded for "COc1cc2ccnc3c2c(c1OC)-c1ccc(=O)ccc1-3" in this assay. f

====

tested on: XF 498 CNS; assay: NCI tumour cell line growth inhibition, 48 h
Answer each item with its documented TGI.
Give bare numbers, in µM.

State recorded TGI for all listed compounds.
1. CCC[CH2][Ge]([CH2]CCC)([CH2]CCC)[O]C(=O)C(O)c1ccccc1 (stereo not given)
2. COc1cc([C@@H]2c3cc4c(cc3[C@@H](NCc3ccccc3)C3COC(=O)[C@@H]32)OCO4)cc(OC)c1O (stereo not given in full)

4.92
41

For each of the compounds below, note its TGI.
1. CCCCCCCCCC1C(C)c2c([nH]c3ccccc23)C2C(=O)N(c3ccccc3)C(=O)C21 (stereo not given)
2. COc1ccc2nc(NC(=O)C(=O)C(C(=O)c3ccccc3-c3ccccc3)C3OC(=O)c4ccccc43)sc2c1 (stereo not given)
3. Cc1ccc(S(=O)(=O)SCc2ccccc2CSS(=O)(=O)c2ccc(C)cc2)cc1
4. O=C(Nc1nc2ccccc2n1Cc1ccc(Cl)cc1)NC12CC3CC(CC(C3)C1)C2

23.2
45.7
47.4
53.2

====

tested on: HT29 colon; assay: NCI tumour cell line growth inhibition, 48 h
measurement_name: TGI

// input: 3 compounds below; output: TGI for each
1. COc1ccc2c(c1)sc1nc(-c3ccccc3)c(-c3ccc(O)c(OC)c3)n12
2. COc1ccc2oc(=O)c3c(c2c1C)OC(C)(C)C=C3
3. O=C1C[C@@H](Sc2ccccc2)C2(OCCO2)[C@H]2ON3CCC[C@@H]3[C@@H]12

1: > 100 µM; 2: > 100 µM; 3: 2.86 µM

====

Please provide measured GI50 for the entries that follow.
test system: ACHN renal; experiment: NCI tumour cell line growth inhibition, 48 h

Example compounds with recorded GI50:
- CCC[CH2][Sn]([CH2]CCC)([O]C(=O)c1cc(OC)c(OC)cc1OC)[O]C(=O)c1cc(OC)c(OC)cc1OC: 1.62 µM
- C[C@H]1[C@H](C)CC[C@]2(C(=O)O)CC[C@]3(C)C(=CC[C@@H]4[C@@]5(C)CC[C@H](OC(=O)/C=C/c6ccc(O)cc6)C(C)(C)[C@@H]5CC[C@]43C)[C@H]12: 5.05 µM
- CC(=O)O[C@H]1CC[C@]2(C)[C@H]3CC=C4[C@@H]5CC(C)(C)CC[C@]5(C(=O)NCCNCCN)CC[C@@]4(C)[C@]3(C)CC[C@H]2C1(C)C: 0.196 µM
- CNNC(=N\S(=O)(=O)c1cc(C(=O)Nc2ccc(Cl)cc2)c(Cl)cc1SCc1ccccc1)/N=C/c1ccc([N+](=O)[O-])s1: > 100 µM
- C#C[C@@]1(O)[C@@H](CO)O[C@@H](n2ccc3c(N)ncnc32)[C@@H]1O: 0.56 µM

Hi team, please reply with GI50 for each item in this list.
1. CCC[CH2][Ge]([CH2]CCC)([CH2]CCC)[O]C(=O)C(O)c1ccccc1 (stereo not drawn)
2. O=C(Nc1ccccc1)NS(=O)(=O)c1ccc(N2N=C3c4ccccc4CC3C2c2ccccn2)cc1 (stereo not drawn)
3. C/C(=N\NC(=O)c1ccccc1O)c1cccc(/C(C)=N/NC(=O)c2ccccc2O)n1
4. COc1cc2ccnc3c2c(c1OC)-c1ccc(=O)ccc1-3
5. Nc1ncnc2c(C3OC(CO)C(O)C3O)[nH]nc12 (stereo not drawn)
6. N#CSCc1c(Cl)cccc1Cl

["4.23 µM", "23.6 µM", "0.668 µM", "19.3 µM", "0.0944 µM", "5.14 µM"]

Batch lookup, GI50 per entry.
1. Nc1c(C(=O)c2cccc(C#CCN3CCOCC3)c2)cnn1-c1ccc(F)cc1
2. COc1cc2nc(N3CCCC3)nc(Nc3ccccc3)c2cc1OC
3. O=C1c2cc3c(cc2[C@@H]2[C@H]1c1ccc([N+](=O)[O-])cc1C(=O)N2CCCCl)OCO3
4. Nc1ncnc2c(C3OC(CO)C(O)C3O)scc12 (stereo not drawn)
5. O=C(NNc1ccccc1)OCc1ccccc1
6. CN(C)C(=O)c1cc2cnc(Nc3ccc(-c4csc5c(=O)cc(N6CCNCC6)oc45)cc3)nc2n1C1CCCC1
7. C/C1=C\C/C=C(\C)[C@H]2CC(CC/C(C)=C/CC1)[C@@](C)(CO)O2
8. COc1cc2c(c(OC)c1OC)-c1ccc(SC)c(=O)cc1[C@@H](NCc1cccc(C#N)c1)CC2

["> 25 µM", "1.38 µM", "< 0.01 µM", "0.127 µM", "6.9 µM", "1.78 µM", "> 100 µM", "0.0134 µM"]

====

system: LOX IMVI melanoma; test: NCI tumour cell line growth inhibition, 48 h
Where a SMILES comes first, the peptide text is derived from it. [ ]: non-standard residue; d: D form. NMeY = CN[C@@H](Cc1ccc(O)cc1)C(=O)O; dNMeF = CN[C@H](Cc1ccccc1)C(=O)O; Sar = CNCC(=O)O
Consider the following compounds; for each one, report its TGI.

Fill in TGI for each of the 5 compounds listed.
1. CN(C)CCNC(=O)Cn1ccc(=O)c2ccc([N+](=O)[O-])cc21
2. Cc1cc(C)n(-c2nc3ccccc3c(=O)n2-c2ccccc2)n1
3. c1ccc(-c2nnc(Nc3ccc4c(c3)OCCO4)o2)c(NCc2ccncc2)c1
4. CCCCCCCCCCCCCCCCOCC(COP(=O)([O-])OCC[n+]1ccc(N(C)C)cc1)OCC (configuration not stated)
5. Cc1ccc(NC(=O)CC/C(CC(=O)c2ccc(F)cc2)=N\NC(=O)C(=O)NN)cc1C

1. > 100 µM
2. > 100 µM
3. > 100 µM
4. 25.5 µM
5. > 100 µM

Provide reported TGI for each item, in the same order as listed.
1. Cc1cc(N(CCCCl)CCCCl)ccc1C=Nc1cccc(Cl)c1
2. CC(=O)OCC1OC(n2c(=O)n(-c3ccccc3)c(=O)c3cc(Br)cc(Br)c32)C(OC(C)=O)C(OC(C)=O)C1OC(C)=O (configuration not stated)
3. O=C(O)CCCCCO
4. Cc1cc(S(=O)(=O)NC2=NC(c3ccccc3)c3ccccc3N2)c(S)cc1Cl (configuration not stated)
5. CN(C)CC/C(=N\Nc1ccc(Cl)c(Cl)c1)c1ccccc1
6. C#C[C@@]1(O)[C@@H](CO)O[C@@H](n2ccc3c(N)ncnc32)[C@@H]1O
7. CC(C)(C)CC(C)(C)N=C(N)NO

["26.7 µM", "> 100 µM", "> 100 µM", "> 100 µM", "3.06 µM", "2.05 µM", "> 100 µM"]

// input: 6 compounds below; output: TGI for each
1. CC1(c2nc3ccccc3[nH]2)CCC(C(N)=O)C(C)(C)O1 (configuration not stated)
2. COc1cccc(-n2ncc3c(N/N=C/c4ccc(S(C)(=O)=O)cc4)ncnc32)c1
3. CCC1(C(=O)OC)CCc2c(OC)ccc(OC)c2C1=O (configuration not stated)
4. Nc1c(C(=O)c2cccc(C#CCN3CCOCC3)c2)cnn1-c1ccc(F)cc1
5. C/C=C/C(C#N)(Cc1ccccc1)OP1(=O)OC(c2ccccc2)C(C)N1C (configuration not stated)
6. CC1(O)CC2(O)C=CC3=C(C(=O)c4cccc(O)c4C3=O)C2(O)C(=O)C1O (configuration not stated)

> 100 µM
> 25 µM
> 100 µM
> 25 µM
> 100 µM
3.37 µM

Respectfully, I request TGI for each entry included below.
1. COc1cc(Cn2ccc3c2-c2oncc2CC3)cc(OC)c1
2. CC[C@H](C)[C@@H]1NC(=O)[C@H](Cc2ccc(O)cc2)N(C)C(=O)[C@H](Cc2ccccc2)NC(=O)CN(C)C(=O)[C@@H]2CCCN2C(=O)[C@@H](Cc2ccccc2)N(C)C(=O)[C@H](CC(C)C)NC1=O (cyclo(F[NMeY]IL[dNMeF]P[Sar]))
3. CCC[CH2][Ge]([CH2]CCC)([CH2]CCC)[O]C(=O)C(O)c1ccccc1 (configuration not stated)

1. > 100 µM
2. 1.89 µM
3. 13.6 µM

Parameter requested: TGI. Apply to each item below.
1. CC1=C(C(=O)CC(=O)C(=O)Nc2ccccc2)Sc2ccccc2N1
2. COc1ccc2c(c1)sc1nc(-c3ccccc3)c(-c3ccc(O)c(OC)c3)n12
3. COc1ccc(-c2cc(-c3cn[nH]c3-c3ccccn3)ccn2)cc1

["> 100 µM", "> 100 µM", "> 25 µM"]

I would be grateful if you could provide TGI for each of the following entries.
1. CCOC(=O)CCC(NC(=O)c1ccc(Nc2nc3ccccc3n3cccc23)cc1)C(=O)OCC (configuration not stated)
2. O=c1oc2ccc(Cl)cc2c(=O)n1-c1cc(C(F)(F)F)cc(C(F)(F)F)c1
3. COc1ccc(C2CC(=O)CC(c3ccc(OC)cc3)C23C(=O)NC(=S)NC3=O)cc1 (configuration not stated)

1: > 100 µM; 2: 2.33 µM; 3: > 100 µM

Would you mind listing TGI for each of the following compounds?
1. COc1ccc([C@H]2C=C(c3cc(F)c(Cl)cc3Cl)NC(=S)N2)cc1
2. COc1cc(O)c2c(c1)C(=O)c1cc(C)cc(O)c1C2=O
3. CC(C)=CCC[C@](C)(O[C@@H]1O[C@H](CO)[C@@H](O)[C@H](O)[C@H]1O)[C@H]1CC[C@]2(C)[C@@H]1[C@H](O)C[C@@H]1[C@@]3(C)CC[C@H](O)C(C)(C)[C@@H]3[C@@H](O[C@@H]3O[C@H](CO)[C@@H](O)[C@H](O)[C@H]3O)C[C@]12C
4. CC(=O)OC1CCC2(C)C(CCC3C4CC=C(C(C)=O)C4(C)OC(=O)CC32)C1 (configuration not stated)
5. COc1ccc(CC2c3cc(OC)c(OC)c(OC)c3CC[N+]2(C)C)cc1Oc1ccc(CC2c3cc4c(c(OC)c3CCN2C)OCO4)cc1 (configuration not stated)
6. COc1cc2ccnc3c2c(c1OC)-c1ccc(=O)ccc1-3
7. N#Cc1c(N)c2c(c(-c3ccccc3)c1-c1ccccc1)C(=O)N(NC(=O)c1ccccc1)C2=O
8. CSCCCNC(=O)c1csc(-c2csc(CCN)n2)n1

> 100 µM
> 100 µM
> 100 µM
3.17 µM
> 100 µM
46.5 µM
> 100 µM
> 100 µM

List reported TGI for each of these compounds:
1. CCN(C(=O)CCl)C(C)(C)C(SSSC(c1ccc(Cl)cc1)C(C)(C)N(CC)C(=O)CCl)c1ccc(Cl)cc1 (configuration not stated)
2. O=C1/C(=C/c2ccccc2)N=C(c2ccccc2)N1C1Nc2cc3c(cc2S1)NC(N1C(=O)/C(=C/c2ccccc2)N=C1c1ccccc1)S3 (configuration not stated)

1: 10.7 µM; 2: > 100 µM
